Source: patent US20220267260A1

Biological target: KAT5 (Homo sapiens)
Sequence (Q92993 with tags, fused parts or gaps): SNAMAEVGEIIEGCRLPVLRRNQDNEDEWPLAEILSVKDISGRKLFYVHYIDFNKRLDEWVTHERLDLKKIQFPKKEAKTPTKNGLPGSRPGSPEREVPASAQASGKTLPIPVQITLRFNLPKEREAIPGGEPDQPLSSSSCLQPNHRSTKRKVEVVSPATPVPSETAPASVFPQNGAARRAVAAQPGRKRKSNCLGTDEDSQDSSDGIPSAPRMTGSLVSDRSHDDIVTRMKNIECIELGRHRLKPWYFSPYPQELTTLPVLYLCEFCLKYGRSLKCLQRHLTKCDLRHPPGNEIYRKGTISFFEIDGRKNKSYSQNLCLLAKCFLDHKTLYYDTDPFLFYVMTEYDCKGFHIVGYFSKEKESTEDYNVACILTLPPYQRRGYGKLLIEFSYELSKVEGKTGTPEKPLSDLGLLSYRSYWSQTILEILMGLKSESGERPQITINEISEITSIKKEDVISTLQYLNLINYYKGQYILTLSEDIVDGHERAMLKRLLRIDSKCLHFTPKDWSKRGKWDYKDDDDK
pIC50: −log10 of the molar value.
MEASURE_NAME: pIC50

- O=C(NNS(=O)(=O)C1CCCCC1)c1cc(-c2cc(F)cc(Cl)c2)cc(Cl)c1F: 4.00 to 4.30
- C=CCn1nc(NNS(=O)(=O)c2ccccc2)c2ccccc21: < 4.00
- O=C(NNS(=O)(=O)c1ccccc1)c1c(F)cccc1F: < 4.00
- Cc1cc(-c2ccccc2)cc(C(=O)NNS(=O)(=O)CC2CN(C(=O)OC(C)(C)C)CCO2)c1F (centres unmarked): ≥ 5.00
- COc1ccc(C(=O)NNS(=O)(=O)c2ccccc2)cc1: < 4.00
- Cc1cc(-c2ccccc2)cc(C(=O)NNS(=O)(=O)c2cccc(C(C)C)c2)c1F: < 4.00
- Cc1cc(-c2cccc(F)c2F)cc(C(=O)NNS(=O)(=O)c2ccccc2)c1F: ≥ 5.00
- CC(=O)N1CCC(CS(=O)(=O)NNC(=O)c2cc(-c3ccccc3)cc(C)c2F)C1 (centres unmarked): ≥ 5.00
- CNC(=O)CCNC(=O)c1cc(Cl)c(F)c(C(=O)NNS(=O)(=O)C2CCOCC2)c1: < 4.00
- Cc1cc(-c2ccccc2)cc(C(=O)NNS(=O)(=O)Cc2ccc(F)cc2)c1F: ≥ 5.00
- CC(=O)N1CCC(CS(=O)(=O)NNC(=O)c2cc(-c3ccccc3)cc(C)c2F)CC1: ≥ 5.00
- Cc1cc(-c2cccc(F)c2)cc(C(=O)NNS(=O)(=O)CC2CCCN(C(=O)C3CCC3)C2)c1F (centres unmarked): ≥ 5.00
- COc1ccc(S(=O)(=O)NNC(=O)c2ccccc2F)cc1: < 4.00
- Cc1cc(-c2ccccc2)cc(C(=O)NNS(=O)(=O)c2ccc(Cl)cc2)c1F: ≥ 5.00
- Cc1c(-c2ccccc2)ccc(F)c1C(=O)NNS(=O)(=O)CC(Cc1ccccc1)C(C)C (centres unmarked): 4.30 to 5.00
- Cn1ccc2c(C(=O)NNS(=O)(=O)c3ccccc3)cc(-c3ccccc3)cc21: 4.00 to 4.30
- COCCC(=O)N1CCCC(S(=O)(=O)NNC(=O)c2cc(-c3ccccc3)cc(C)c2F)C1 (centres unmarked): 4.30 to 5.00
